# Assay target: T1, MBP-PDZ fusion protein (mammalian (so in the source), UniProt P57105 6-100, limits assumed)
# T1 construct: domain: PDZ domain; also called MBP fusion PDZ
# T1 sequence (looked up): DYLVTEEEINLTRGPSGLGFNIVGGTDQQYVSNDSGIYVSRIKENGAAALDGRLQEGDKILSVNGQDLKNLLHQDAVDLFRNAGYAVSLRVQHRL
# Assay comment: beads-binding assay, MBP-PDZ-coupled resin
Observation type: binding result

Binder	Observation type	Reported measurement
P4 (VHH) VHH: HVQLVESGGGLVQAGGSLRLSCAAAGRTSSDYAMGWFRQAPGKEREFVSAINWSGISTYYADSVKGRFTISRDNAKNTVHLQMNSLKPEDTAVYYCAAEKLESLRNWHDPLMYDYWGQGTQVTVSE	binding result	binds
P2 (VHH) VHH: DVQLVESGGGLVQAGGSLRLSCAASGHTFSSYTMGWFHQAPGKEREFVAEISGTGGNTGYADSVKGRFTISRDNAKNTVYLQMNSLKPEDTAVYYCAAVIGSPTDSSDYRSSLDYDYWGQGTQVTVSE	binding result	binds
P1 (VHH) VHH: DVQLVESGGGLVQPGGSLRLSCAASGFTLDDYAIGWFRQAPGKEREGVSCISSHGSTYYADSVKGRFTISRDNVKNTLYLQMNSLKPEDTALYYCAASYYSDYEVAVCRSDALDAWGQGTQVTVSE	binding result	binds
